Taken from ChEMBL document CHEMBL2440005.

Recorded pIC50, one value per entry.
Test system: PBMC
procedureText: Antiinflammatory activity in human PBMC assessed as inhibition of LPS-induced IL-6 release incubated for 15 mins prior to LPS-challenge measured after 24 hrs by HTRF assay
Type: functional, cell-based
The quantity pIC50 is defined as the negative base-10 logarithm of the molar concentration.

Below: 2 molecules and their reported pIC50.
• O=C(Nc1ccc2c(c1)B(O)OC2)c1ccccc1C(F)(F)F = 5.36
• O=C(Nc1ccc2c(c1)B(O)OC2)c1c(F)cccc1Cl = 5.31

Now for a further molecule.
Reported pIC50 for PBMC, given `O=C(Nc1ccc2c(c1)B(O)OC2)c1ccc(C(F)(F)F)cc1C(F)(F)F` ?
5.08
